Reference for the values: patent US12281121B2

# Test system: Ba/F3 CCDC6-RET (WT) cells
# experimental-protocol: Cell proliferation inhibition, CellTiter-Glo
# Format: cell-based
# test-context: BaF3/CCDC6-RET, 72 hours
Known GI50 of a selection of compounds

compound: COc1ccc(CN2C3CC2CN(c2ccc(-c4nc(Nc5cc(C)[nH]n5)c5ccccc5n4)cn2)C3)cn1 [Example 3]
GI50 (nM): 51
//
compound: COc1ccc(CN2C3CC2CN(c2ccc(-c4nc(Nc5cc(C)[nH]n5)c5sccc5n4)cn2)C3)cn1 [Example 2]
GI50 (nM): 49
//
compound: COc1ccc(CN2C3CC2CN(c2ccc(-c4nc5c(c(Nc6cc(C)[nH]n6)n4)CCC5)cn2)C3)cn1 [Example 7]
GI50 (nM): 45
//
compound: COc1ncc(CN2C3CC2CN(c2ccc(-c4nc(Nc5cc(C)[nH]n5)c5ccccc5n4)cn2)C3)cc1Cl [Example 16]
GI50 (nM): 127
//
compound: Cc1cnc(CN2C3CC2CN(c2ccc(-c4nc(Nc5cc(C)[nH]n5)c5ccccc5n4)cn2)C3)cn1 [Example 26]
GI50 (nM): 37
//
compound: Cc1ccc(CN2C3CC2CN(c2ccc(-c4nc(Nc5cc(C)[nH]n5)c5ccccc5n4)cn2)C3)cn1 [Example 10]
GI50 (nM): 39
//
compound: Cc1cc(Nc2nc(-c3ccc(N4CC5CC(C4)N5Cc4ccc(C(F)(F)F)nc4)nc3)nc3ccccc23)n[nH]1 [Example 8]
GI50 (nM): 51
